Tested on: CAKI-1 renal
Experiment: NCI tumour cell line growth inhibition, 48 h
measured.property: TGI

>>> observed_result("O=[N+]([O-])C(=C(\\Cl)NCCO)/C(Cl)=C(/Cl)Br")
"1.85 µM"
>>> observed_result("O=C(O)COc1cccc2ccccc(=O)c12")
"> 100 µM"
>>> observed_result("CN(Cc1cccc(Cl)c1)c1ccc(CO)c(Cl)c1")
"23.4 µM"
>>> observed_result("C[C@H](OC(=O)/C=C/c1ccc(O)c(O)c1)[C@H](C)OC(=O)/C=C/c1ccc(O)c(O)c1")
"> 100 µM"
>>> observed_result("CCOC(=O)C1=CN(Cc2ccccc2)C2ON=C(c3ccc(Cl)cc3)C2C1 (centres undefined)")
"> 85.1 µM"
>>> observed_result("O=c1cc(/C=C/c2ccccc2)c2ccc(O/C(=C\\c3ccccc3)c3nc4ccccc4c(=O)o3)cc2o1")
"> 100 µM"
>>> observed_result("CC(=O)Nc1ccc2cc3c(nc2n1)c1cccnc1n3S(=O)(=O)c1ccccc1")
"> 100 µM"
>>> observed_result("CCCCCCCCC[C@@H]1C[C@H](O)[C@H](Cc2ccccc2)N1C(=O)OC(C)(C)C")
"38.2 µM"
>>> observed_result("COc1ccc(-c2nn(C(=O)c3cc(OC)c(OC)c(OC)c3)c3cc(N)ccc23)cc1")
"8.39 µM"
>>> observed_result("O=C(O)c1cc2sc(C(=O)O)cc2s1")
"> 100 µM"
>>> observed_result("Nc1nc(=O)n(C2CC(O)C(CO)O2)c2nc(-c3ccc(-c4ccccc4)cc3)cnc12 (centres undefined)")
"> 100 µM"
>>> observed_result("COc1ccc(OC/C(N=Cc2cccnc2)=N/NC(=O)c2ccncc2)cc1")
"> 100 µM"
>>> observed_result("CN(C)C=Nc1cccc2c1NSN2")
"> 100 µM"
>>> observed_result("C/C(=N\\Nc1nc2ccccc2[nH]1)c1ccc2ccccc2n1")
"1.54 µM"
>>> observed_result("Cc1nc2c(ccc3[nH]c4ccccc4c32)s1")
"> 100 µM"
>>> observed_result("O=C1CN2CCN(CC2)CC(=O)Nc2ccc(cc2)S(=O)(=O)c2ccc(cc2)NC(=O)CN2CCN(CC2)CC(=O)Nc2ccc(cc2)S(=O)(=O)c2ccc(cc2)N1")
"> 100 µM"
>>> observed_result("COc1ccc(-c2nc3ccccc3c(=O)[nH]2)cc1OC")
"> 100 µM"
>>> observed_result("COc1cc(Nc2nccc(-c3cnn4ncccc34)n2)cc(OC)c1")
"4.02 µM"
>>> observed_result("Nc1c(S(=O)(=O)O)cc2c(c1Cl)C(=O)c1ccccc1C2=O")
"> 100 µM"
>>> observed_result("CCOC1=NC(C(F)(F)F)(C(F)(F)F)N=C(/N=C(/N)N(C)C(C(C)C)P(=O)(OC(C)C)OC(C)C)O1 (centres undefined)")
"> 100 µM"
>>> observed_result("CC(C)N=C(NC#N)NS(=O)(=O)c1cnccc1NC1CCCCCCC1")
"> 100 µM"
>>> observed_result("COC(=O)c1cccc(COc2ccc([N+](=O)[O-])cc2Cl)c1")
"> 100 µM"
>>> observed_result("OC1/C(=C/c2ccccc2)CNC/C1=C\\c1ccccc1 (centres undefined)")
"> 100 µM"
>>> observed_result("NC(CSC(c1ccccc1)(c1ccccc1)c1ccc(Br)cc1)C(=O)O (centres undefined)")
"> 100 µM"
